As shown below, each of these compounds has a reported IC50 value.
# SYSTEM: H-PGDS (Homo sapiens (Human))
# Sequence (O60760 whole entry): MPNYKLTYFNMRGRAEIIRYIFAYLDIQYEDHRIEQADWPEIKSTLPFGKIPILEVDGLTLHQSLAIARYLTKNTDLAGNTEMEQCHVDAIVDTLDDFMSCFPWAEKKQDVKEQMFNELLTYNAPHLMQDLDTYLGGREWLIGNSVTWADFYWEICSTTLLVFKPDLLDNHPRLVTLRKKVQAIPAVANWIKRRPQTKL
# EXPERIMENT: H-PGDS Fluorescence Polarization Binding Assay (FPBA)
# CONDITION INFO: H-PGDS-MBP fusion enzyme, fluorescent probe, reduced glutathione 5 mM, 60-90 minutes at room temperature, 96-well format
TEST READOUT: IC50 (nM)

COMPOUND: c1ccc(-c2ccc(-c3cnc(-c4ccccc4)[nH]3)cn2)cc1
SYSTEM: H-PGDS (Homo sapiens (Human))
REPORTED RESULT: 480
--
COMPOUND: CC(C)(C)OC(=O)N1CCC(c2ncc(-c3cnc(-c4ccccc4)nc3)[nH]2)CC1
SYSTEM: H-PGDS (Homo sapiens (Human))
REPORTED RESULT: 150
--
COMPOUND: c1ccc(CN2CCCC(c3ncc(-c4cnc(-c5ccccc5)nc4)[nH]3)C2)cc1 (racemic)
SYSTEM: H-PGDS (Homo sapiens (Human))
REPORTED RESULT: 600
--
COMPOUND: Fc1cccc(-c2ncc(-c3cnc(-c4ccccc4)[nH]3)cn2)c1
SYSTEM: H-PGDS (Homo sapiens (Human))
REPORTED RESULT: 280
--
COMPOUND: COc1ccc(-c2ncc(-c3cnc(-c4ccccc4)[nH]3)cn2)cc1OC
SYSTEM: H-PGDS (Homo sapiens (Human))
REPORTED RESULT: 3500
--
COMPOUND: c1ccc(-c2ncc(-c3cc(-c4cccnc4)n[nH]3)cn2)cc1
SYSTEM: H-PGDS (Homo sapiens (Human))
REPORTED RESULT: 1300
--
COMPOUND: CC(=O)N1CCCC(c2nc(-c3cnc(-c4ccccc4)nc3)c[nH]2)C1 (centres unmarked)
SYSTEM: H-PGDS (Homo sapiens (Human))
REPORTED RESULT: 90
--
COMPOUND: O=C(N1CCCC(c2nc(-c3cnc(-c4ccccc4)nc3)c[nH]2)C1)C(F)(F)F (racemic)
SYSTEM: H-PGDS (Homo sapiens (Human))
REPORTED RESULT: 90
--
COMPOUND: Fc1cccc(-c2ncc(-c3cnc(-c4ccccc4)nc3)[nH]2)c1
SYSTEM: H-PGDS (Homo sapiens (Human))
REPORTED RESULT: 188
--
COMPOUND: CNC(=O)N1CCCC(c2nc(-c3cnc(-c4ccccc4)nc3)cn2C(=O)NC)C1 (racemic) [Example 25A]
SYSTEM: H-PGDS (Homo sapiens (Human))
REPORTED RESULT: 620
--
COMPOUND: c1ccc(-c2ncc(-c3cnc(-c4ccccc4)o3)cn2)cc1
SYSTEM: H-PGDS (Homo sapiens (Human))
REPORTED RESULT: 125000
--
COMPOUND: c1ccc(Oc2ncc(-c3cnc(-c4ccccc4)[nH]3)cn2)cc1
SYSTEM: H-PGDS (Homo sapiens (Human))
REPORTED RESULT: 4000
--
COMPOUND: c1ccc(-c2ncc(-c3cnc(C4CCNCC4)[nH]3)cn2)cc1
SYSTEM: H-PGDS (Homo sapiens (Human))
REPORTED RESULT: 1000
--
COMPOUND: c1ccc(-c2ncc(-c3nnc(-c4cccnc4)[nH]3)cn2)cc1
SYSTEM: H-PGDS (Homo sapiens (Human))
REPORTED RESULT: 1000
--
COMPOUND: Cl.c1ccc(-c2ncc(-c3cc[nH]n3)cn2)cc1 [Example 41, hydrochloride]
SYSTEM: H-PGDS (Homo sapiens (Human))
REPORTED RESULT: 2400
--
COMPOUND: c1ccc(-c2ncc(-c3cnc(-c4cccnc4)[nH]3)cn2)cc1
SYSTEM: H-PGDS (Homo sapiens (Human))
REPORTED RESULT: 79
--
COMPOUND: c1ccc(Cn2cnc(-c3cnc(-c4ccccc4)nc3)c2)cc1
SYSTEM: H-PGDS (Homo sapiens (Human))
REPORTED RESULT: 4000
--
COMPOUND: c1ccc(-c2ncc(-c3cnc(-c4ccccc4)[nH]3)cn2)cc1
SYSTEM: H-PGDS (Homo sapiens (Human))
REPORTED RESULT: 250
--
COMPOUND: O=C(O)c1cc(-c2cnc(Oc3ccccc3)nc2)[nH]n1
SYSTEM: H-PGDS (Homo sapiens (Human))
REPORTED RESULT: 5000
--
COMPOUND: c1ccc(-c2ncc(-c3nnn[nH]3)cn2)cc1
SYSTEM: H-PGDS (Homo sapiens (Human))
REPORTED RESULT: 2500
